- Assayed Target: B*0702T (human, UniProt P61769)
- Experiment Description: FP competition against 1.9 nM FITC-labeled P1(B*0702), 40 µg/ml sHLA B*0702T (955)
Measurement Label: IC50 (nM)
Value expressed in nM; do not type the unit.

What the record says about LVMAPRTVL : IC50 is 276
